All values here come from patent US20160046573A1.

- SYSTEM TESTED: CYP2C9 (Homo sapiens)
- Construct: purchased BD Biosciences 456258; host or cells: baculovirus infected insect cells (BTI-TN-5B1-4)
- Sequence (P11712 whole entry): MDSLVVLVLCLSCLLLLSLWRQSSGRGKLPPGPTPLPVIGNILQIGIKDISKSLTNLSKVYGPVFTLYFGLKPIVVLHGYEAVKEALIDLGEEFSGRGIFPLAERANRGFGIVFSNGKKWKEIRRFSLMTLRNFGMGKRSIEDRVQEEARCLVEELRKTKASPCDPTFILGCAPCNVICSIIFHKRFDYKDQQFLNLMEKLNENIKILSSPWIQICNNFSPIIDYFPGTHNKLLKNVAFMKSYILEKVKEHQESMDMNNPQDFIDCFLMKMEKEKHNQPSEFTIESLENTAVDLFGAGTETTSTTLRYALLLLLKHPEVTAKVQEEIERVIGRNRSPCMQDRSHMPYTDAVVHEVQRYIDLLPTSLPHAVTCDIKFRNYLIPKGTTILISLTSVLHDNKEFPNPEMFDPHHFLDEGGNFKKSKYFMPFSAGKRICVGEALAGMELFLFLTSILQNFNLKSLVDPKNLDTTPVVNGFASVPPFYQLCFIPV
- ASSAY METHOD TEXT: Enzyme kinetics of [14C]BAF312 metabolism by rhCYP2C9
- Assay type: in vitro ADME
- CONDITION SET: human, pH 7.4; rhCYP2C9 50 pmol/mL, 60 min, total metabolites, substrate inhibition model, 5-300 μM
ATTRIBUTE MEASURED: Km at 60 min

// query Km at 60 min for CCc1cc(/C(C)=N/OCc2ccc(C3CCCCC3)c(C(F)(F)F)c2)ccc1CN1CC(C(=O)O)C1 ?
// result 34.5 µM
